FYI, the data here is from the supplement of paper PMC10567573.

B1: ESRRG (parent)
chain: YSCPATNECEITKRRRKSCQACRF

Variants of: B1
measurement.notes: protein stability index of a GFP-peptide fusion (GPS, HEK-293T) (PSI 1-6); higher = more stable;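 further: lentivirally expressed fusions sorted by FACS into six bins by GFP to DsRed ratio, PSI derived from sequencing read proportions per bin multiplied by bin number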
measurement.context: c terminus: a fixed tail appended
# binarize protein stability index: threshold 3 inclusive, high side yes, low side no

1. R15V
yes

Evaluate T6L : protein stability index at minimum 3?
yes

Proceed to Q20P
yes

Proceed to R23W
no

Proceed to C19T
yes

Proceed to N7L
no

Proceed to C3M
yes
